The measured values listed here are drawn from patent US20160200733A1.

- TGT: mAChR hM4 (Homo sapiens)
- Sequence (P08173 1-479): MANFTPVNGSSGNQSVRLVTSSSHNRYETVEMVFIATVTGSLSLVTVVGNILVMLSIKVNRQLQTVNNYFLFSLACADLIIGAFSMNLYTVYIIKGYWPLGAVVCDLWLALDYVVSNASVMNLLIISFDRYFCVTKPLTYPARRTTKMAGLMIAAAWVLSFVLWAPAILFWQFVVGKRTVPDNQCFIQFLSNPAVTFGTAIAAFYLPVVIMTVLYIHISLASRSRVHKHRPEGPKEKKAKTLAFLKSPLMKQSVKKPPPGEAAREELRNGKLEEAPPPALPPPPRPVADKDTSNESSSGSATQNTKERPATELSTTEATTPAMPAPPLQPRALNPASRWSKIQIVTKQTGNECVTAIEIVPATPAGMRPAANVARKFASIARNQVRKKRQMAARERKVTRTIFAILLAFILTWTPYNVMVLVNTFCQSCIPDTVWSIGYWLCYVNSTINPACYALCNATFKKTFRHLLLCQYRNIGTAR
- EXPERIMENTAL PROTOCOL: mAChR M4 cell-based functional assay (calcium flux, potentiation of EC20 acetylcholine response)
- SETUP CONDITIONS: mAChR hM4 cell-line; >10,000 estimated for low potency compounds lacking a plateau
pEC50: −log10 of the molar value.
pEC50 values for the compounds below.
MEASUREMENT LABEL: pEC50

COMPOUND	TGT	RESULT
COc1ccc(CNC(=O)c2sc3nc(C)c(Cl)c(C)c3c2C2CC2)cc1	mAChR hM4 (Homo sapiens)	< 5.00
COc1ccc(C2CC2NC(=O)c2cc3c(C)cc(C)nc3s2)cc1 (stereo not drawn)	mAChR hM4 (Homo sapiens)	6.09
Cc1cc(C)c2c(Br)c(C(=O)NCc3ccc(S(C)(=O)=O)cc3)sc2n1	mAChR hM4 (Homo sapiens)	< 5.00
Cc1cnc2sc(C(=O)NCc3ccc(-c4ccnnc4)s3)cc2c1C	mAChR hM4 (Homo sapiens)	< 5.00
Cc1nc2sc(C(=O)NC3COC3)c(-c3cccs3)c2c(C)c1Cl	mAChR hM4 (Homo sapiens)	< 5.00
Cc1nc2sc(C(=O)NC3COC3)c(-c3ccccc3)c2c(C)c1Cl	mAChR hM4 (Homo sapiens)	< 5.00
COc1ccc(CNC(=O)c2sc3nc(C)c(Cl)c(C)c3c2C2CC2)cc1F	mAChR hM4 (Homo sapiens)	< 5.00
Cc1cc(C)c2cc(C(=O)NC3COC3)sc2n1	mAChR hM4 (Homo sapiens)	< 5.00
Cc1nc2sc(C(=O)NC3CCOC3)c(C3CC3)c2c(C)c1Cl (stereo not drawn)	mAChR hM4 (Homo sapiens)	5.80
COc1ccc(CNC(=O)c2sc3nc(C)c(Cl)c(C)c3c2-c2cnn(C)c2)cc1F	mAChR hM4 (Homo sapiens)	< 5.00
Cc1nc2sc(C(=O)N3CC(c4ccccc4)C3)c(C3CC3)c2c(C)c1Cl	mAChR hM4 (Homo sapiens)	< 5.00
Cc1cc(C)c2c(Br)c(C(=O)NCC(C)C)sc2n1	mAChR hM4 (Homo sapiens)	< 5.00
Cc1nc2sc(C(=O)NC3COC3)c(C)c2c(C)c1Cl	mAChR hM4 (Homo sapiens)	6.39
Cc1nc2sc(C(=O)N[C@H](C)C3CC3)c(Cl)c2c(C)c1Cl	mAChR hM4 (Homo sapiens)	< 5.00
Cc1nc2sc(C(=O)NC3CCOC3)c(C)c2c(C)c1Cl (stereo not drawn)	mAChR hM4 (Homo sapiens)	5.92
Cc1nc2sc(C(=O)N3CC4C(C3)C4(C)C)c(-c3cnn(C)c3)c2c(C)c1Cl (stereo not drawn)	mAChR hM4 (Homo sapiens)	< 5.00
Cc1cc(C)c2cc(C(=O)NCc3ccc(-c4ccnnc4)s3)sc2n1	mAChR hM4 (Homo sapiens)	< 5.00
Cc1cc(C)c2cc(C(=O)NC3CN(c4ccc(C(F)(F)F)nc4)C3)sc2n1	mAChR hM4 (Homo sapiens)	< 5.00
COc1ccc(CN(C)C(=O)c2sc3nc(C)c(Cl)c(C)c3c2Br)cc1	mAChR hM4 (Homo sapiens)	< 5.00
Cc1cc(C)c2c(Br)c(C(=O)NC3CC3)sc2n1	mAChR hM4 (Homo sapiens)	5.32
Cc1nc2sc(C(=O)NC3CCN(C)CC3)c(C)c2c(C)c1Cl	mAChR hM4 (Homo sapiens)	< 5.00
Cc1cc(C)c2c(Br)c(C(=O)NC3CCOC3)sc2n1 (stereo not drawn)	mAChR hM4 (Homo sapiens)	< 5.00
COc1ccc(CNC(=O)c2sc3nc(C)cc(C)c3c2-c2cnn(C)c2)cc1F	mAChR hM4 (Homo sapiens)	< 5.00
Cc1nc2sc(C(=O)NC3CC3)c(Br)c2c(C)c1Cl	mAChR hM4 (Homo sapiens)	6.11
Cc1nc2sc(C(=O)NC3COC3)c(C3CC3)c2c(C)c1Cl	mAChR hM4 (Homo sapiens)	6.07
COc1ccc(CNC(=O)c2sc3nc(C)cc(C)c3c2C)cc1	mAChR hM4 (Homo sapiens)	5.62
Cc1cc(C)c2c(-c3cnn(C)c3)c(C(=O)NCc3ccc(S(C)(=O)=O)cc3)sc2n1	mAChR hM4 (Homo sapiens)	< 5.00
Cc1cnc2sc(C(=O)NCc3ccc(-c4cccnc4F)cc3)cc2c1C	mAChR hM4 (Homo sapiens)	5.57
Cc1cc(C)c2c(C)c(C(=O)NCc3ccc4c(c3)OCCO4)sc2n1	mAChR hM4 (Homo sapiens)	5.66
Cc1nc2sc(C(=O)N[C@@H](C)C3CC3)c(-c3cnn(C)c3)c2c(C)c1Cl	mAChR hM4 (Homo sapiens)	< 5.00
Cc1cc(C)c2cc(C(=O)NCc3ccc(-c4cccnc4F)cc3)sc2n1	mAChR hM4 (Homo sapiens)	< 5.00
COc1ccc2c(c1)CCN(C(=O)c1sc3nc(C)cc(C)c3c1C)C2	mAChR hM4 (Homo sapiens)	< 5.00
Cc1nc2sc(C(=O)NC3(C)COC3)c(Br)c2c(C)c1Cl	mAChR hM4 (Homo sapiens)	6.24
Cc1nc2sc(C(=O)NC3COC3)c(-c3ccc4nonc4c3)c2c(C)c1Cl	mAChR hM4 (Homo sapiens)	< 5.00
COc1ccc(C2CC2NC(=O)c2sc3nc(C)cc(C)c3c2-c2cnn(C)c2)cc1 (stereo not drawn)	mAChR hM4 (Homo sapiens)	< 5.00
Cc1nc2sc(C(=O)NC3CCS(=O)(=O)C3)c(-c3cnn(C)c3)c2c(C)c1Cl (stereo not drawn)	mAChR hM4 (Homo sapiens)	< 5.00
